target: human TLR8 (Homo sapiens (Human)); experiment: TLR8 inhibition reporter assay (HEK-Blue cells, SEAP reporter, R848 stimulation); conditions: read-out: TLR8 IC50, HEK-Blue cells, R848 15.9 μM;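 also: compounds tested from 0.05 nM to 50 µM, 22 h at 37 °C, SEAP measured with HEK-Blue Detection, inhibition relative to agonist plus DMSO versus a known inhibitor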
Sequence (Q9NR97 27-1041): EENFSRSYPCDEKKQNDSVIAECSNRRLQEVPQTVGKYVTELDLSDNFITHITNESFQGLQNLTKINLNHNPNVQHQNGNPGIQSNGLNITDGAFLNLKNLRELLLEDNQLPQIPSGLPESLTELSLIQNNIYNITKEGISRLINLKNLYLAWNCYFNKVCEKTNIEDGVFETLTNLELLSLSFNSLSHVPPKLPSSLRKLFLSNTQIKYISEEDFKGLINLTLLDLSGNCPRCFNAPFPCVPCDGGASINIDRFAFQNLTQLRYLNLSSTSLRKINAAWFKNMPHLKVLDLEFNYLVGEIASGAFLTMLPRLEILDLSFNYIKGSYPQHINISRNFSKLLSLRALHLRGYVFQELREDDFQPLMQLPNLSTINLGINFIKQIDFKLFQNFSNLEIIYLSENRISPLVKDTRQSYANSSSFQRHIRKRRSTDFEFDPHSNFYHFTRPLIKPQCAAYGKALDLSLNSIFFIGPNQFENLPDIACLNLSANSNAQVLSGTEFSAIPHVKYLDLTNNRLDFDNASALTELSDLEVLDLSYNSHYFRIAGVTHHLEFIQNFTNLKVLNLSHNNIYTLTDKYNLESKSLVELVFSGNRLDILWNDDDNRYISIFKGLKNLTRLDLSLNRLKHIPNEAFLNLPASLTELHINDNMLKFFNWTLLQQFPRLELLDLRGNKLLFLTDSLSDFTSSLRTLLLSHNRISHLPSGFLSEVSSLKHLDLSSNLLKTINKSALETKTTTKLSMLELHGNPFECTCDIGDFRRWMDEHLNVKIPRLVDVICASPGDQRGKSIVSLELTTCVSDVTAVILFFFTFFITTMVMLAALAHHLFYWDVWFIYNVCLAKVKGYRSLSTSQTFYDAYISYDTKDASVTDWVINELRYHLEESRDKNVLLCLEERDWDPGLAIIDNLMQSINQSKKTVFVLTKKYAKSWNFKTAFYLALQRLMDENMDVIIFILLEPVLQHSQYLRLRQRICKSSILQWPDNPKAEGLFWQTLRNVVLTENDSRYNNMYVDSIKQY
pIC50: −log10 of the molar value.
measurement.type: pIC50

{"compound": "Cc1cc(-c2[nH]c3ccc(C4CCN(C(=O)C(=O)N5CCNCC5)CC4)cc3c2C(C)C)cc(C)n1", "measured.target": "human TLR8 (Homo sapiens (Human))", "pIC50": 7.87}
{"compound": "Cc1cc(-c2[nH]c3cc(F)c(C4CCN(C5CCN(C(C)C)CC5)CC4)cc3c2C(C)C)ccn1", "measured.target": "human TLR8 (Homo sapiens (Human))", "pIC50": 8.09}
{"compound": "Cc1cc(-c2[nH]c3ccc(C4CCN(C5CCN(C(C)C)CC5)CC4)cc3c2C)cc(C)n1", "measured.target": "human TLR8 (Homo sapiens (Human))", "pIC50": 6.94}
{"compound": "Cc1cc(-c2[nH]c3ccc(C4CCN(C(C)CF)CC4)cc3c2C(C)C)ccn1 (stereo not drawn)", "measured.target": "human TLR8 (Homo sapiens (Human))", "pIC50": 7.97}

a: Cc1cc(-c2[nH]c3ccc(C4CCN(CC5CC5)CC4)cc3c2C(C)C)ccn1
b: CCc1c(-c2ccnc(C)c2)[nH]c2ccc(C3CCN(C(=O)NC4CCNCC4)CC3)cc12
Compare pIC50: is it lower for a or for b ? Indicate which entry you chose by stating its label.
b

====

target: human TLR7 (Homo sapiens (Human), UniProt Q9NYK1); assay: TLR7 inhibition reporter assay (HEK-Blue cells, SEAP reporter, gardiquimod stimulation); format: cell-based; conditions: HEK-Blue cells overexpressing human TLR7, gardiquimod 7.5 μM
Sequence (Q9NYK1 27-1049): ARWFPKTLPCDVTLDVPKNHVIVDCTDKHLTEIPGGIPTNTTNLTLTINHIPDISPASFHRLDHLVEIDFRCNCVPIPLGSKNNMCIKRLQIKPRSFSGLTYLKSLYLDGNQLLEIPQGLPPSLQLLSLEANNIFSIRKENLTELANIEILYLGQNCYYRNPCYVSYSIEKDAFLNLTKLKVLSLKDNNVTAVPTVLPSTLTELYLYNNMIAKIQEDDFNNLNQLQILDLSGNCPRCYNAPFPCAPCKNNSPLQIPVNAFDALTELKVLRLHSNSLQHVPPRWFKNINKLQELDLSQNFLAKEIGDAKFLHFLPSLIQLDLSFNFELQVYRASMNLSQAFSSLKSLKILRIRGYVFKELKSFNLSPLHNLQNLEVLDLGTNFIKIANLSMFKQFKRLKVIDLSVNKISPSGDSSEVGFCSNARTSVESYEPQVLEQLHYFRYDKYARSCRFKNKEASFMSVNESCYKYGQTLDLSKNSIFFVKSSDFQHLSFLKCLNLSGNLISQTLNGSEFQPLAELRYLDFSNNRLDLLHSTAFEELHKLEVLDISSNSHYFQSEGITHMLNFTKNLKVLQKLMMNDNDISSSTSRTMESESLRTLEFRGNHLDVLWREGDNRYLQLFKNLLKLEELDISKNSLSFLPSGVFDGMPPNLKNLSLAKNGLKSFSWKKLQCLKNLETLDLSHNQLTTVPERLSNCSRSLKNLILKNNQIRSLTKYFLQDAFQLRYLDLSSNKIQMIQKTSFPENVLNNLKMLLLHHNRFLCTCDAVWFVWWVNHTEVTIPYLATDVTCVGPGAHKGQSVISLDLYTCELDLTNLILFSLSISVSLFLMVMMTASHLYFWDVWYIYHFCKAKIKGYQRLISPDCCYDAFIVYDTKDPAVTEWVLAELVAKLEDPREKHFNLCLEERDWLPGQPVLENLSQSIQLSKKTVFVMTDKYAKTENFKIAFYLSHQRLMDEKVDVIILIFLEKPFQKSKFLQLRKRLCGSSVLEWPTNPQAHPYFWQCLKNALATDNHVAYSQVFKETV
pIC50: −log10 of the molar value.
measurement.type: pIC50

{"compound": "Cc1cc(-c2[nH]c3ccc(C4CCN(C5CC(C)OC(C)C5)CC4)cc3c2C(C)C)cc(C)n1 (stereo not shown) [Example 455]", "pIC50": 7.96}
{"compound": "Cc1cc(-c2[nH]c3ccc(C4CCN(C(=O)CNCC5CCCO5)CC4)cc3c2C(C)C)cc(C)n1 (stereo not shown) [Example 373]", "pIC50": 8.60}
{"compound": "CCc1c(-c2ccnc(OC(F)F)c2)[nH]c2ccc(C3CCN(C4CCN(CC(C)C)CC4)CC3)cc12 [Example 774]", "pIC50": 5.43}
{"compound": "COC1CN(C(=O)CN2CCC(c3ccc4[nH]c(-c5cc(C)nc(C)c5)c(C(C)C)c4c3)CC2)C1 [Example 226]", "pIC50": 8.27}
{"compound": "Cc1cc(-c2[nH]c3ccc(C4CCN(C(=O)C5CCOC5)CC4)cc3c2C(C)C)ccn1 (stereo not shown) [Example 599]", "pIC50": 7.73}

I: Cc1cc(-c2[nH]c3ccc(C4CCN(CC(=O)NC5(C)CCOCC5)CC4)cc3c2C(C)C)cc(C)n1 [Example 267]
II: Cc1cc(-c2[nH]c3ccc(C4CCN(C(=O)Cn5ccc(C6CC6)n5)CC4)cc3c2C(C)C)cc(C)n1 [Example 162]
III: Cc1ccc(S(=O)(=O)N2CCC(c3ccc4[nH]c(-c5ccnc(C)c5)c(C(C)C)c4c3)CC2)cc1 [Example 554]
IV: Cc1cc(-c2[nH]c3cc(F)c(C4CCNCC4)cc3c2C(C)C)ccn1 [Example 73]
Sort entries by pIC50 from minimum to maximum value. Answer by listing the labels in the requested order.
III, II, IV, I

1: COCCCN1CCC(c2ccc3[nH]c(-c4cc(C)nc(C)c4)c(C(C)C)c3c2)CC1 [Example 330]
2: CNCCN1CCC(c2ccc3[nH]c(-c4cc(C)nc(C)c4)c(C(C)C)c3c2)CC1 [Example 428]
3: CCc1c(-c2ccnc(NC(C)=O)c2)[nH]c2ccc(C3CCNCC3)cc12 [Example 68]
4: Cc1cc(-c2[nH]c3ccc(C4CCN(C(=O)C(C)(C)C)CC4)cc3c2C(C)C)ccn1 [Example 601]
List from greatest to least pIC50. Answer by listing the labels in the requested order.
2, 1, 4, 3
